The compounds listed here are annotated with their fold induction at 50 µM.
- Test system: A. baumannii strain 98-37-09
- protocol notes: AK assay 384-well format, Prestwick library screening
- Type: cell-based, Acinetobacter baumannii
- condition description: Acinetobacter baumannii, 983709, 3 h; 50 μM final drug concentration; cutoff for positive-scoring molecules 3-fold increase; read-out: AK-based Prestwick Library Screening Results, A. baumannii (fold increase in extracellular AK activity)
quantity name: fold induction at 50 µM

* CS(=O)(=O)c1ccc([C@@H](O)[C@@H](CF)NC(=O)C(Cl)Cl)cc1 | 1.2
* CCC1(c2ccccc2)C(=O)NCNC1=O | 1.2
* CC(C)[N+](C)(CCC(C(N)=O)(c1ccccc1)c1ccccc1)C(C)C [Isopropamide iodide] | 1
* CC[C@H](c1ccc(O)cc1)[C@@H](CC)c1ccc(O)cc1 | 3
* CC(C)(C)NC(=O)[C@H]1CC[C@H]2[C@@H]3CC[C@H]4NC(=O)C=C[C@]4(C)[C@H]3CC[C@]12C [Finasteride] | 1.2
* CC(=O)OCC(=O)[C@@]12OC(C)(C)O[C@@H]1C[C@H]1[C@@H]3C[C@H](F)C4=CC(=O)C=C[C@]4(C)[C@@]3(F)[C@@H](O)C[C@@]12C [Fluocinonide] | 0.9
